molecular target: Growth hormone secretagogue receptor type 1 (Rattus norvegicus); assay: In vitro effective dose was measured for the growth hormone release in rat pituitary cells; type: functional, cell-based; settings: Pituitary gland cell
endpointName: ED50 (nM)

(I) CC(C)(CC(=O)N[C@@H]1CCc2ccccc2N(Cc2ccc(-c3ccccc3-c3nn[nH]n3)cc2)C1=O)NCCN
(II) CC(C)(CC(=O)N[C@@H]1CCc2ccccc2N(Cc2ccc(-c3ccccc3-c3nn[nH]n3)cc2)C1=O)NCc1ccccc1
stdin: Input pair: I , II . Output: entry with lower ED50. Response format: the label of the selected entry.
stdout: II
(II: 65000 nM, I: 230000 nM)

(P) CC[C@@H](N)C(=O)N[C@@H]1CCc2ccccc2N(Cc2ccc(-c3ccccc3-c3nn[nH]n3)cc2)C1=O
(Q) CC(C)(N)CC(=O)N[C@@H]1CCc2ccccc2N(Cc2ccc(-c3ccccc3-c3nn[nH]n3)cc2)C1=O
(R) N[C@H](Cc1ccccc1)C(=O)N[C@@H]1CCc2ccccc2N(Cc2ccc(-c3ccccc3-c3nn[nH]n3)cc2)C1=O
(S) CC(C)(CN)C(=O)N[C@@H]1CCc2ccccc2N(Cc2ccc(-c3ccccc3-c3nn[nH]n3)cc2)C1=O
stdin: Hello, I need these entries ordered by ED50, highest reading first. Thanks! List the labels, following the order given in the request.
stdout: S, R, P, Q

---

molecular target: Growth hormone secretagogue receptor type 1 (Rattus norvegicus) (UniProt O08725); test: In vitro effective dose was measured for the growth hormone release in rat pituitary cells; type: functional, cell-based; settings: Pituitary gland cell
Sequence (O08725 whole entry): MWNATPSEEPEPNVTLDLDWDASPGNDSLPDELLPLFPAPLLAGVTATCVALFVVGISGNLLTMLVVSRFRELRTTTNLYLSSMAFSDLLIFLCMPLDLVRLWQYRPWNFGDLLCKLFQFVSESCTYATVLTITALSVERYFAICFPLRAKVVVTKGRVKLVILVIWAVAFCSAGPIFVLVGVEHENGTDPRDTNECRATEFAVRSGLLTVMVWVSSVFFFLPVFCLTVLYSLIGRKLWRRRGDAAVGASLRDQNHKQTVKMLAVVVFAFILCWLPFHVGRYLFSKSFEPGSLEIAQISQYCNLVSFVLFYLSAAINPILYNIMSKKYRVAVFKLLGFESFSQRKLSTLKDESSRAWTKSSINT
endpointName: ED50 (nM)

C[C@@H](N)C(=O)N[C@@H]1CCc2ccccc2N(Cc2ccc(-c3ccccc3-c3nn[nH]n3)cc2)C1=O (stereo in doubt; 12) : 100

(I) NCC(=O)N[C@@H]1CCc2ccccc2N(Cc2ccc(-c3ccccc3-c3nn[nH]n3)cc2)C1=O
(II) NCCC(=O)N[C@@H]1CCc2ccccc2N(Cc2ccc(-c3ccccc3-c3nn[nH]n3)cc2)C1=O
(III) CC(C)(N)C(=O)N[C@@H]1CCc2ccccc2N(Cc2ccc(-c3ccccc3-c3nn[nH]n3)cc2)C1=O
(IV) CCCNC(C)(C)CC(=O)N[C@@H]1CCc2ccccc2N(Cc2ccc(-c3ccccc3-c3nn[nH]n3)cc2)C1=O
stdin: // sort entries: ED50, high to low Record the ranking as a list of labels in the requested order.
stdout: IV, I, II, III
